Values were extracted from patent US20190233493A1.

- assay.target: T1, RXFP1 receptor (UniProt Q9HBX9 1-757, limits assumed)
- T1 sequence (looked up): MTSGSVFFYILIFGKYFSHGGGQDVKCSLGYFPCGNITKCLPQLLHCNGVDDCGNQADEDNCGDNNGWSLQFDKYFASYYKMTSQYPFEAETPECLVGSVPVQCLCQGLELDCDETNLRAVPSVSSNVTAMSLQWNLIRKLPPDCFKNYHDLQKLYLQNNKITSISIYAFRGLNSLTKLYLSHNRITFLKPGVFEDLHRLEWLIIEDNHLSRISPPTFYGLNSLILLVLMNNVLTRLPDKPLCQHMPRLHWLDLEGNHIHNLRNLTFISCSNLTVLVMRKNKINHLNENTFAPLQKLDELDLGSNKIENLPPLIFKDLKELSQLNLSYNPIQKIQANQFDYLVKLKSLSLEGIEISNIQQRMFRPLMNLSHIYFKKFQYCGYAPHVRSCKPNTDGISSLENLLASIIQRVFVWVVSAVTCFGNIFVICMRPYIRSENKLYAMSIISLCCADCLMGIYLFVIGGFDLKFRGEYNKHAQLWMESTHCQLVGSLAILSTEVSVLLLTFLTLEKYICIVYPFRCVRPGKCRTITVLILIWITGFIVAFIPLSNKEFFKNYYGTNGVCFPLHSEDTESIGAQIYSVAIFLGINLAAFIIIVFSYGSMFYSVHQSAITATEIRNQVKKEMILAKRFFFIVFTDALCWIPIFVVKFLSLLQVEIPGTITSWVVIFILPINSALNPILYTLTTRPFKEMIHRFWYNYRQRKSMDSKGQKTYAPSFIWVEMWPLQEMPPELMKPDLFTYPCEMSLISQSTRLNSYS
- procedure.text: cell-based or functional assay
*1 amine or outer side, *2 acyl side, *3 side chain or, on linkers, in order; H or OH if unused. Primed or numbered codes have the meaning given here. Side-chain parts run from the residue outwards. [ ]: non-standard residue; d: D form. The star is where a group is joined. γGlu = O=C(O)[C@H](CCC(=O)[*:2])N[*:1]; Stearoyl = CCCCCCCCCCCCCCCCCC(=O)*; Palmitoyl = CCCCCCCCCCCCCCCC(=O)*; αMeK = C[C@](N)(CCCCN)C(=O)O; Nle = CCCC[C@H](N)C(=O)O; PEG2′ = PEG2 spacer unit; PEG2″ = not defined here; Aib = CC(C)(N)C(=O)O
observation.type: EC50 (nM), OVCAR 5 cells (cAMP)

# binder, observation.type, measure.unit, quantitative.readout
records = [
    ("Ac-LEGREKVRAK(Ac)I[Aib][Aib]EG[Nle]STWS[αMeK]RKK(Ac)K([PEG2″-PEG2″-PEG2″-γGlu-γGlu-γGlu-γGlu-Palmitoyl])-NH2 [peptide of SEQ ID NO: 65]", "EC50 (nM), OVCAR 5 cells (cAMP)", "nM", 0.12),
]

1: Ac-LEGREKVRAQI[Aib][Aib]EG[Nle]STWS[Aib]RKKK([PEG2′-PEG2′-γGlu-Stearoyl])-NH2 [peptide of SEQ ID NO: 56]
2: Ac-LEGREKVRAK(Ac)I[Aib][Aib]EG[Nle]STWS[Aib]RKK(Ac)[PEG2′][PEG2′][PEG2′]K([γGlu-γGlu-γGlu-Stearoyl])-NH2 [peptide of SEQ ID NO: 14]
# input For the two items 1 and 2 , which reports the higher EC50 (nM), OVCAR 5 cells (cAMP) value? Field: selected label. Fill in the label of the entry you choose.
# output 1
